biological target: IAV endonuclease (Influenza A virus, UniProt C3W5S0); assay: High throughput endonuclease assay; format: biochemical, influenza A/California/04/09 H1N1; settings: ligand efficiency, LE = −RTln(IC50)/NHA; Tables 1 and 2
Result type: LE kcal/(mol·NHA)

Solved entries (count: 8):
# Smiles, LE kcal/(mol·NHA)
records = [
    ("O=C(O)c1ccc(-c2[nH]c(=O)c(O)cc2-c2ccc(F)cc2)cc1", "0.415 kcal/(mol·NHA)"),
    ("N#Cc1ccc(-c2[nH]c(=O)c(O)cc2Cc2cccc3ccccc23)cc1", "0.343 kcal/(mol·NHA)"),
    ("O=c1[nH]c(-c2ccc(F)cc2)c(-c2ccc(-c3cnn[nH]3)cc2)cc1O", "0.401 kcal/(mol·NHA)"),
    ("NS(=O)(=O)c1ccc(-c2cc(O)c(=O)[nH]c2-c2ccc(F)cc2)cc1", "0.354 kcal/(mol·NHA)"),
    ("N#Cc1ccc(-c2cc(O)c(=O)[nH]c2Cc2cccc3ccccc23)cc1", "0.353 kcal/(mol·NHA)"),
    ("O=C(O)c1ccc(-c2cc(O)c(=O)[nH]c2-c2ccc(F)cc2)cc1", "0.455 kcal/(mol·NHA)"),
    ("O=c1[nH]c(Cc2ccc(F)cc2)c(-c2ccc(-c3nnn[nH]3)cc2)cc1O", "0.385 kcal/(mol·NHA)"),
    ("N#Cc1ccc(-c2cc(O)c(=O)[nH]c2Cc2ccc(F)cc2)cc1", "0.360 kcal/(mol·NHA)"),
]

Switching to the query record.
Input: Report LE kcal/(mol·NHA) from IAV endonuclease (Influenza A virus, UniProt C3W5S0) testing of O=c1[nH]c(Cc2cccc3ccccc23)c(-c2ccc(-c3nnn[nH]3)cc2)cc1O
Output: 0.358 kcal/(mol·NHA)

====

biological target: UniProt C3W5S0; experiment: High throughput endonuclease assay; format: biochemical, influenza A/California/04/09 H1N1; conditions: ligand efficiency, LE = −RTln(IC50)/NHA; Tables 1 and 2
Result type: LE kcal/(mol·NHA)

Solved entries (count: 7):
# Smiles, LE kcal/(mol·NHA)
records = [
    ("Cn1nnc(-c2ccc(-c3cc(O)c(=O)[nH]c3-c3ccc(F)cc3)cc2)n1", "0.348 kcal/(mol·NHA)"),
    ("N#Cc1ccc(-c2cc(O)c(=O)[nH]c2-c2cccc3ccccc23)cc1", "0.351 kcal/(mol·NHA)"),
    ("N#Cc1ccc(-c2[nH]c(=O)c(O)cc2-c2ccc(F)cc2)cc1", "0.433 kcal/(mol·NHA)"),
    ("O=c1[nH]c(-c2ccc(-c3nnn[nH]3)cc2)c(Cc2cccc3ccccc23)cc1O", "0.362 kcal/(mol·NHA)"),
    ("O=c1[nH]c(-c2ccc(-c3nnn[nH]3)cc2)c(-c2ccc(F)cc2)cc1O", "0.403 kcal/(mol·NHA)"),
    ("CC(=O)NS(=O)(=O)c1ccc(-c2cc(O)c(=O)[nH]c2-c2ccc(F)cc2)cc1", "0.335 kcal/(mol·NHA)"),
    ("O=c1[nH]c(-c2ccc(-c3nnn[nH]3)cc2)c(Cc2ccc(F)cc2)cc1O", "0.369 kcal/(mol·NHA)"),
]

Input: Tell me LE kcal/(mol·NHA) reported for O=c1[nH]c(-c2cccc3ccccc23)c(-c2ccc(-c3nnn[nH]3)cc2)cc1O
Output: 0.354 kcal/(mol·NHA)

====

Overview of reported IC50 across a group of molecules:
target: UniProt C3W5S0; test: High throughput endonuclease assay; type: biochemical, influenza A/California/04/09 H1N1
Form entry: enter the amount, then its unit.

Solved entries (count: 2):
# Smiles, IC50
rows = [
    ("N#Cc1ccc(-c2cc(O)c(=O)[nH]c2-c2cccc3ccccc23)cc1", "220 nM"),
    ("NS(=O)(=O)c1ccc(-c2cc(O)c(=O)[nH]c2-c2ccc(F)cc2)cc1", "347 nM"),
]

Input: Tell me IC50 reported for Cn1nnc(-c2ccc(-c3cc(O)c(=O)[nH]c3-c3ccc(F)cc3)cc2)n1
Output: 138 nM

Input: Tell me IC50 reported for Cn1nnnc1-c1ccc(-c2cc(O)c(=O)[nH]c2-c2ccc(F)cc2)cc1
Output: 298 nM

Input: Tell me IC50 reported for CC(=O)NS(=O)(=O)c1ccc(-c2cc(O)c(=O)[nH]c2-c2ccc(F)cc2)cc1
Output: 145 nM

Input: Tell me IC50 reported for O=C(O)c1ccc(-c2[nH]c(=O)c(O)cc2-c2ccc(F)cc2)cc1
Output: 55 nM

Input: Tell me IC50 reported for N#Cc1ccc(-c2[nH]c(=O)c(O)cc2Cc2ccc3ccccc3c2)cc1
Output: 250 nM

====

Overview of reported LE kcal/(mol·NHA) across a group of compounds:
biological target: IAV endonuclease (Influenza A virus, UniProt C3W5S0); assay: High throughput endonuclease assay; assay type: biochemical, influenza A/California/04/09 H1N1; conditions: ligand efficiency, LE = −RTln(IC50)/NHA; Tables 1 and 2

Input: Tell me LE kcal/(mol·NHA) reported for N#Cc1ccc(-c2cc(O)c(=O)[nH]c2-c2ccc3ccccc3c2)cc1
Output: 0.330 kcal/(mol·NHA)

Input: Tell me LE kcal/(mol·NHA) reported for Cn1nnnc1-c1ccc(-c2cc(O)c(=O)[nH]c2-c2ccc(F)cc2)cc1
Output: 0.331 kcal/(mol·NHA)

Input: Tell me LE kcal/(mol·NHA) reported for N#Cc1ccc(-c2[nH]c(=O)c(O)cc2Cc2ccc3ccccc3c2)cc1
Output: 0.335 kcal/(mol·NHA)

Input: Tell me LE kcal/(mol·NHA) reported for O=c1[nH]c(Cc2ccc3ccccc3c2)c(-c2ccc(-c3nnn[nH]3)cc2)cc1O
Output: 0.328 kcal/(mol·NHA)

Input: Tell me LE kcal/(mol·NHA) reported for N#Cc1ccc(-c2cc(O)c(=O)[nH]c2Cc2ccc3ccccc3c2)cc1
Output: 0.314 kcal/(mol·NHA)

====

biological target: UniProt C3W5S0; test: High throughput endonuclease assay; type: biochemical, influenza A/California/04/09 H1N1
Overview of reported IC50 across a group of compounds:
Express your answer in nM, writing the number without its unit.

Solved entries (count: 5):
# Smiles, IC50 (nM)
records = [
    ("O=c1[nH]c(-c2ccc(-c3nnn[nH]3)cc2)c(Cc2ccc(F)cc2)cc1O", 54),
    ("O=C(O)c1ccc(-c2cc(O)c(=O)[nH]c2-c2ccc(F)cc2)cc1", 11),
    ("O=c1[nH]c(-c2ccc(F)cc2)c(-c2ccc(-c3cnn[nH]3)cc2)cc1O", 25),
    ("COC(=O)c1ccc(-c2cc(O)c(=O)[nH]c2-c2ccc(F)cc2)cc1", 125),
    ("N#Cc1ccc(-c2[nH]c(=O)c(O)cc2Cc2ccc(F)cc2)cc1", 484),
]

Input: Report IC50 from UniProt C3W5S0 testing of N#Cc1ccc(-c2[nH]c(=O)c(O)cc2Cc2cccc3ccccc23)cc1
Output: 173

Input: Report IC50 from UniProt C3W5S0 testing of N#Cc1ccc(-c2cc(O)c(=O)[nH]c2Cc2ccc(F)cc2)cc1
Output: 507

Input: Report IC50 from UniProt C3W5S0 testing of O=c1[nH]c(Cc2ccc(F)cc2)c(-c2ccc(-c3nnn[nH]3)cc2)cc1O
Output: 26

Input: Report IC50 from UniProt C3W5S0 testing of N#Cc1ccc(-c2cc(O)c(=O)[nH]c2Cc2cccc3ccccc23)cc1
Output: 114

Input: Report IC50 from UniProt C3W5S0 testing of N#Cc1ccc(-c2cc(O)c(=O)[nH]c2Cc2ccc3ccccc3c2)cc1
Output: 660

====

target: UniProtKB C3W5S0; experiment: High throughput endonuclease assay; type: biochemical, influenza A/California/04/09 H1N1; conditions: ligand efficiency, LE = −RTln(IC50)/NHA; Tables 1 and 2
Result type: LE kcal/(mol·NHA)

Solved entries (count: 2):
# Smiles, Study system, LE kcal/(mol·NHA)
measured = [
    ("O=c1[nH]c(-c2ccc(-c3nnn[nH]3)cc2)c(Cc2ccc3ccccc3c2)cc1O", "UniProtKB C3W5S0", "0.324 kcal/(mol·NHA)"),
    ("N#Cc1ccc(-c2[nH]c(=O)c(O)cc2Cc2ccc(F)cc2)cc1", "UniProtKB C3W5S0", "0.361 kcal/(mol·NHA)"),
]

Input: Report LE kcal/(mol·NHA) from UniProtKB C3W5S0 testing of N#Cc1ccc(-c2cc(O)c(=O)[nH]c2-c2ccc(F)cc2)cc1
Output: 0.409 kcal/(mol·NHA)
